Tested on: HT-1080
testMethodNotes: Cytotoxicity against human HT1080 cells by SRB assay
Format: functional, cell-based
IC50 values, listed per item
Write the number in nM without appending the unit.

CC(CN(C)C)Oc1cc2oc3c(c2cc1Cl)C(=O)c1ccccc1C3=O (centres undefined)	490
COc1cccc2c1C(=O)c1c(O)c3c(c(O)c1C2=O)C[C@@](O)(C(=O)CO)C[C@@H]3O[C@H]1C[C@H](N)[C@H](O)[C@H](C)O1	60

So what does the record say about IC50 for CC(CN(C)C)Oc1ccc2c3c(oc2c1)C(=O)c1ncccc1C3=O (centres undefined) ? 170

====

Tested on: HCT-116
testMethodNotes: Cytotoxicity against human HCT116 cells by SRB assay
Format: functional, cell-based
Mark satisfied for IC50 under 300 nM, not satisfied if at or over.

See these solved cases before continuing.
COc1cccc2c1C(=O)c1c(O)c3c(c(O)c1C2=O)C[C@@](O)(C(=O)CO)C[C@@H]3O[C@H]1C[C@H](N)[C@H](O)[C@H](C)O1	not satisfied
CC(COc1cc2oc3c(c2cc1Cl)C(=O)c1ccccc1C3=O)N(C)C (stereo not drawn)	not satisfied
CC(COc1ccc2c3c(oc2c1)C(=O)c1ncccc1C3=O)N(C)C (stereo not drawn)	satisfied
CC(CN(C)C)Oc1cc2oc3c(c2cc1Cl)C(=O)c1ccccc1C3=O (stereo not drawn)	not satisfied

IC50 strictly < 300 nM for this compound? CCN(CC)CCOc1cc2oc3c(c2cc1Cl)C(=O)c1cccnc1C3=O satisfied

Repeat for the following compound: CC(CN(C)C)Oc1ccc2c3c(oc2c1)C(=O)c1ccccc1C3=O (stereo not drawn) satisfied

Then what about the compound CC(COc1ccc2c3c(oc2c1)C(=O)c1ccccc1C3=O)N(C)C (stereo not drawn) ? not satisfied

Another compound: CC(C)N(CCOc1cc2oc3c(c2cc1Cl)C(=O)c1cccnc1C3=O)C(C)C not satisfied

Field entry: CC(C)N(CCOc1ccc2c3c(oc2c1)C(=O)c1ncccc1C3=O)C(C)C satisfied

Moving on to the next compound: CC(COc1cc2oc3c(c2cc1Cl)C(=O)c1cccnc1C3=O)N(C)C (stereo not drawn) satisfied
